Cited source for all entries: patent US20250235531A1

Assay Text: Luciferase mRNA nanoparticle biophysical data (DLS diameter and PDI, Ribogreen encapsulation)
Format: physicochemical
Assay Conditions: Ribogreen assay; luciferase mRNA nanoparticles (IL1:DSPC:cholesterol:PEG-DMG-2K) modified with the lipid amine
Method: Lipids are dissolved in ethanol at a concentration of 24 mg/mL and molar ratios of 49.0:11.2:39.3:0.5 (IL1:DSPC:cholesterol:PEG-DMG-2K) and mixed with the acidification buffer (45 mM acetate buffer at pH 4). The lipid solution and acidification buffer are mixed using a multi-inlet vortex mixer at a 3:7 volumetric ratio of lipid:buffer for mixer 1 and mixer 2 and a 1:3 volumetric ratio of lipid:buffer (25% ethanol) for mixer 3. […]
In this section, each of the compounds is paired with its reported % Encapsulation (Ribogreen).
Readout Label: % Encapsulation (Ribogreen) (%)

compound="CC[C@H](CC[C@@H](C)[C@H]1CC[C@H]2[C@@H]3CC=C4C[C@@H](OC(=O)N(CCCCNCCC(C)N)CCC(C)N)CC[C@]4(C)[C@H]3CC[C@]12C)C(C)C.Cl.Cl.Cl (some centres unmarked) [SA111]" reported=99.6
compound="CC[C@H](CC[C@@H](C)[C@H]1CC[C@H]2[C@@H]3CC=C4C[C@@H](OC(=O)N(CCC5CC(N)C5)CCC5CC(N)C5)CC[C@]4(C)[C@H]3CC[C@]12C)C(C)C.Cl.Cl (some centres unmarked) [SA186]" reported=99.3
compound="CC(C)CCC[C@@H](C)[C@H]1CC[C@H]2[C@@H]3CC=C4C[C@@H](OC(=O)CCCC(=O)N(CCC5CC(N)C5)CCC5CC(N)C5)CC[C@]4(C)[C@H]3CC[C@]12C.Cl.Cl (some centres unmarked) [SA188]" reported=99.6
compound="CC[C@H](CC[C@@H](C)[C@H]1CC[C@H]2[C@@H]3CC=C4C[C@@H](SSCCC(=O)N(CCC5CC(N)C5)CCC5CC(N)C5)CC[C@]4(C)[C@H]3CC[C@]12C)C(C)C.Cl.Cl (some centres unmarked) [SA187]" reported=99.0
compound="CC[C@H](CC[C@@H](C)[C@H]1CC[C@H]2[C@@H]3CC=C4C[C@@H](OC(=O)N(CC56CC(N)(C5)C6)CC56CC(N)(C5)C6)CC[C@]4(C)[C@H]3CC[C@]12C)C(C)C.Cl.Cl [SA189]" reported=98.1
